Reported values of koff for individual entries
# assayed.system: T1, IL-2Rβ (UniProt P14784 27-240, limits assumed, biotinylated (site not stated))
# T1 construct: also called CD122; IL-2Rbeta
# T1 sequence (looked up): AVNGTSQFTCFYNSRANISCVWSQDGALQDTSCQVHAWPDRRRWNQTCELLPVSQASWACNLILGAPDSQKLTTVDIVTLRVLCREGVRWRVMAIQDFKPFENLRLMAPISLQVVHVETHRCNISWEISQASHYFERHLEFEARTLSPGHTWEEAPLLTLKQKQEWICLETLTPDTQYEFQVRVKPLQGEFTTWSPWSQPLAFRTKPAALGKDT
# assay.overview: SPR Biacore T100, kinetic fit; biotinylated IL-2Rβ on chip
State just the number; it will be interpreted in s⁻¹.

Output measured koff for this item: in silico designed IL-2 variant SEQ ID NO: 9, MSA fusion protein (ligand, not shown: large carriers; small tags and cut ends) APTSSSTKKTQLQLEHLLLDLQMILNMLNNYDNPKLTRLLTFKFYMPKKATSLKHLQCLEEELKPLEEALNQADSTDSRIRDLISNINVIVLELKGSETTFMCEYADETATIIEFLNRWITFCQSIISTLT 0.12

Provide only the value of recorded koff for in silico designed IL-2 variant SEQ ID NO: 4, MSA fusion protein (ligand, not shown: large carriers; small tags and cut ends) APTSSSTKKTQLQLEHLLLDLQMILNMLNNYDNPKLTRLLTFKFYMPKKATSLKHLQCLEEELKPLEEALNQAGDDPKTIRDLISNINVIVLELKGSETTFMCEYADETATIIEFLNRWITFCQSIISTLT 0.05

Name the recorded koff of the binder listed here: Super-2 (H9) IL-2 variant, expressed as MSA fusion protein (ligand, not shown: large carriers; small tags and cut ends, also called H9 super-2; MSA-H9-super-2) APTSSSTKKTQLQLEHLLLDLQMILNGINNYKNPKLTRMLTFKFYMPKKATELKHLQCLEEELKPLEEVLNLAQSKNFHFDPRDVVSNINVFVLELKGSETTFMCEYADETATIVEFLNRWITFCQSIISTLT 0.0015
